Hello, the source for this data is paper PMC7819943, in case you need it.

target: OsWRKY34 (Oryza sativa, UniProt Q0JBA9 1-250); experiment: protein-binding microarray (RPBM); PBS, 2% BSA, 51.3 ng/ul salmon testes DNA, 50 uM zinc acetate, 200 nM TF, 25 C, 1 h; high values mean tight binding; conditions: protein: recombinant; tags: N-terminal polyhistidine and DsRed monomer fusion (pET32a); label: CyDye5-dUTP incorporated in the synthesized complementary strand; 3' TTTTT single-stranded linker to array surface; dsDNA, one strand shown
Sequence (Q0JBA9 entry or part of it): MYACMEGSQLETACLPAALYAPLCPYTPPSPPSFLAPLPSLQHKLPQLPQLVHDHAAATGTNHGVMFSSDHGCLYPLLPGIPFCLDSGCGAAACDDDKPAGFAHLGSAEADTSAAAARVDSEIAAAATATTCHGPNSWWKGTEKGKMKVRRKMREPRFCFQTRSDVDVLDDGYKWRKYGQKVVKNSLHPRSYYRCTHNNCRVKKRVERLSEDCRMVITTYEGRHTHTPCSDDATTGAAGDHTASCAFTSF
The full ranking holds about 68,000 sequences; the median of “fluorescence intensity (a.u.)” is about 9,100, and the highest 2% start at about 16,000. The full list was thinned out, with the highest values kept by preference.
The sequences listed here are annotated with their binding signal.

ACACTTGGCATTAATCTAATTTAACTTTTTTTTCTTTATCCGGAGTCACCTAGTGCAG :: 8440 fluorescence intensity (a.u.)
GCTTCTACAATCGGATGGATTCACCATTGATTCTCGTTTTCGGAGTCACCTAGTGCAG :: 8940 fluorescence intensity (a.u.)
ATCCATCACATCACGAAACCACTTCATGTACTCTTAACATCGGAGTCACCTAGTGCAG :: 8080 fluorescence intensity (a.u.)
GGCCTCACTATCGTCGACTCCTCCACTCCGGGGACTGCCGCGGAGTCACCTAGTGCAG :: 10000 fluorescence intensity (a.u.)

Ask: Using the record for CCCCTATTTAGCCGCGCCATTTTCCCCTCGCTAGCTGTGTCGGAGTCACCTAGTGCAG , report its binding signal.
Reply: 8400 fluorescence intensity (a.u.)
